Target: Serine/threonine-protein kinase SIK1 (Homo sapiens, UniProt P57059)
Sequence (P57059 whole entry): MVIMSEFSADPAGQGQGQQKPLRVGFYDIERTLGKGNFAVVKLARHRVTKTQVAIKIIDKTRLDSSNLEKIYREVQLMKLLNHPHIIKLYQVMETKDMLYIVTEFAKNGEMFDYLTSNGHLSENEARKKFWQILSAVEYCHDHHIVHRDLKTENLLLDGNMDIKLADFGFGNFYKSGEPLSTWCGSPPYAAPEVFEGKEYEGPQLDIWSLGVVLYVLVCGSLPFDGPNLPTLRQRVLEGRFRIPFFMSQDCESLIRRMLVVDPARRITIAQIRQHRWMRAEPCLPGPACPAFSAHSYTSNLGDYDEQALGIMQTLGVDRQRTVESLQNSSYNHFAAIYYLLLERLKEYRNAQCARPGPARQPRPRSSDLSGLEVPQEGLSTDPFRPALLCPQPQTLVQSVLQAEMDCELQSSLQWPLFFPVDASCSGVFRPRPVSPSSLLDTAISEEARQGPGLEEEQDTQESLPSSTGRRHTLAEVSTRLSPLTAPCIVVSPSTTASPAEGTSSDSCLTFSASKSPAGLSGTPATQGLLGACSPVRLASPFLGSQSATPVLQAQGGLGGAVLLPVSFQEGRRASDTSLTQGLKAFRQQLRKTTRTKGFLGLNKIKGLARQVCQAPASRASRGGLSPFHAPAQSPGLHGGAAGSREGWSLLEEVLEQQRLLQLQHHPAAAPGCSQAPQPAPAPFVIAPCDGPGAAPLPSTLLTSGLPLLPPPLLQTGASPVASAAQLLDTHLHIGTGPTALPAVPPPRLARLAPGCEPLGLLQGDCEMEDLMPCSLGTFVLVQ
pIC50: −log10 of the molar value.
MEASUREMENT_LABEL: pIC50

CC(C)Oc1cc(-n2cnc3ccc(N[C@@H](C)c4ccc(F)cn4)nc32)n[nH]1 = 8.26
